Origin of the recorded values: patent US20190382396A1

assay: Solubility of hydrogen fumarate salt 11 (1000 mg scale-up batch); assay type: physicochemical; details: organic solvent or mixture; IPA, 50° C.
Readout Kind: solubility

In: Report solubility for CC(C)c1nc(-c2cnc(N)c(OC(F)(F)F)c2)cn1C12CC(N3CCOCC3)(C1)C2.O=C(O)/C=C/C(=O)O
Out: 20 to 33 mg/mL

----------
assay: Solubility of hydrogen fumarate salt 11 (1000 mg scale-up batch); format: physicochemical; details: organic solvent or mixture; MTBE, 50° C.
Readout Kind: solubility

In: In one line, give reported solubility of the entry CC(C)c1nc(-c2cnc(N)c(OC(F)(F)F)c2)cn1C12CC(N3CCOCC3)(C1)C2.O=C(O)/C=C/C(=O)O .
Out: < 10 mg/mL
